- Experiment Notes: NCI Yeast Anticancer Drug Screen. Data for the bub3 strain (AID 167)
- Setup Conditions: S. cerevisiae bub3 mutant strain, at 50.0 µM (retest, dose inferred, filed as 5.0), active compounds read high
Compounds without any hit were thinned out: in the full panel of roughly 79,000, 15% have a hit.
Class key for growth inhibition values: interval 1 (below 20%), interval 2 (20% to below 90%), interval 3 (90% or more)

Example entries and their recorded answers appear below.
CN(C)CCCCN1c2ccccc2Sc2ccc(N=[N+]=[N-])cc21 | interval 3
Oc1ccc2c(c1)C(O)CCCC2 (centres undefined) | interval 3
Cc1c2cc[n+](Cc3ccc(I)cc3)cc2c(C)c2c1[nH]c1ccccc12 | interval 3

From here, focus on the item given below.
Just checking, what class would you give COC(=O)/C=C(/CC(=O)OC)C(=O)OC here?
interval 1

----------
growth inhibition values for the compounds below.
- Experiment Notes: NCI Yeast Anticancer Drug Screen. Data for the cln2 rad14 strain (AID 165);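 also: 0% = growth equal to vehicle treated cultures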
- Setup Conditions: S. cerevisiae cln2 rad14 strain, at 50.0 µM (retest, dose inferred, filed as 5.0), active compounds read high
- Experimental: Growth inhibition of yeast strains with defined genetic alterations is measured as a screen for potential anti-cancer activity. Selected strains with alterations in DNA damage repair or cell cycle control were exposed to compounds and growth inhibition was measured relative to vehicle treated controls. The strain used in this assay is cln2 rad14
Compounds without any hit were thinned out: in the full panel of roughly 79,000, 15% have a hit.
The response must be a number in % with no trailing unit.

O=C1c2ccccc2C(=O)N1CCCC(=O)n1cc(F)c(=O)[nH]c1=O | 61
CC(=O)OCC(C)Cc1cc2c(cc1Br)OCO2 (stereo unspecified) | 12
O=C(CC(=O)n1nc(-c2ccccc2)c(N=Nc2ccc(Cl)cc2)c1-c1ccccc1)Nc1cccc(Cl)c1 | 15
COc1cc(/C=C2\NC(=O)N(/C=C3\C(=O)Oc4ccccc4C3=O)C2=O)ccc1O | 94
COc1ccc(NC(=O)CC2SC(=Nc3ccccc3C)NC2=O)c([N+](=O)[O-])c1 (stereo unspecified) | 22
Cc1c(C(C)C)cc(OCCO)cc1C(C)C | 1
CC(C)c1ccc(NC(=S)NC(=O)c2ccccc2)cc1 | 64
S=c1[nH]c2cc3ccccc3cc2[nH]1 | 57
CCC(C)OC(=O)Nc1ccc(C)c(NC(=O)OC(C)CC)c1 (stereo unspecified) | 74
Cc1cc(S(=O)(=O)Nc2nnc3cnc4ccccc4n23)c(S)cc1Cl | 54

Now, please, on to the next compound.
Given the compound OC1(c2ccccc2)CCCc2ccc(Cl)cc21 (stereo unspecified) , what is its reported growth inhibition?
13

----------
- Experiment Notes: NCI Yeast Anticancer Drug Screen. Data for the rad52 strain (AID 147);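 also: 0% = growth of vehicle-treated control cultures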
- Setup Conditions: S. cerevisiae rad52 mutant growth inhibition; at 100.0 µM; active compounds read high
This is part of a sample that, as a whole, favours compounds with a hit. Of some 79,000 tested, about 15% had one in any assay.
Experimental Endpoint: growth inhibition (%)
The response must be a number in % with no trailing unit.

CCCC(=O)Oc1c(C)cc([N+](=O)[O-])cc1[N+](=O)[O-] | 99
Nc1ccc(F)cc1S | 98
COc1c(O)c(C=O)c(Br)c(C=O)c1O | 91
Nc1ncc(-c2ccc(Br)cc2)s1 | 98
Cc1csc(=S)n1OC(=O)NC1CCCCC1 | 99

Given the compound CCCCc1nnc(NS(=O)(=O)c2ccc(C)cc2)s1 , what is its reported growth inhibition?
83

Given the compound Cc1cc(C(C)(C)C)c(OCCCN2CCOCC2)c(C(C)(C)C)c1 , what is its reported growth inhibition?
96

Given the compound CC1(C)CC(=O)C(/C=N/c2nc(-c3ccccc3)cs2)=C(O)C1 , what is its reported growth inhibition?
84

Given the compound O=[N+]([O-])c1cc(F)c(F)cc1Sc1cc(F)c(F)cc1[N+](=O)[O-] , what is its reported growth inhibition?
97

Given the compound Cn1c(=O)c2c(nc(N)n2C2OC(CO)C(O)C2O)n(C)c1=O (stereo not given) , what is its reported growth inhibition?
0

Given the compound O=C1c2ccccc2C(=O)N1CCCC(=O)n1cc(F)c(=O)[nH]c1=O , what is its reported growth inhibition?
8

Given the compound Cc1cc(=O)oc2c(C)c3occc(=O)c3cc12 , what is its reported growth inhibition?
86

Given the compound Cc1ccc([N+]2=NC(c3ccccc3)=NN(c3ccccc3)C2)cc1 , what is its reported growth inhibition?
96

----------
- Experiment Notes: NCI Yeast Anticancer Drug Screen. Data for the sgs1 strain (AID 173);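 also: 0% = growth of vehicle-only control cultures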
- Setup Conditions: S. cerevisiae sgs1 mutant, at 1.2 µM, active compounds read high
This is part of a sample that, as a whole, favours compounds with a hit. Of some 79,000 tested, about 15% had one in any assay.
growth inhibition values for the molecules below.
The response must be a number in % with no trailing unit.

Given the molecule Cc1ccc2c(c1)C1(SC(C)C(=O)N1c1ccc(Cl)cc1)C(=O)N2 (stereo unspecified) , what is its reported growth inhibition?
2

Given the molecule COC(C(O)CO)C(O)C(O)C(=O)NNc1ccccc1 (stereo unspecified) , what is its reported growth inhibition?
-11

Given the molecule CCCOC(=O)C(F)C(Br)C(=O)OCCC (stereo unspecified) , what is its reported growth inhibition?
50

----------
- Experiment Notes: NCI Yeast Anticancer Drug Screen. Data for the mlh1 strain (AID 171);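 also: 0% = growth of vehicle-treated control cultures of the same strain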
- Setup Conditions: S. cerevisiae mlh1 strain growth inhibition; at 3.7 µM
This is part of a sample that, as a whole, favours compounds with a hit. Of some 79,000 tested, about 15% had one in any assay. The source made the active and inactive calls. Cut-off read from the data, not from the text of the source: active = growth inhibition above about 70%; inactive = the rest.
Outcomes you can answer with include only these: YES (active), NO (inactive)

Example entries and their recorded answers appear below.
CN(C)C=NC1CCC(C(C)(C)C)CC1 (stereo not drawn) | NO
O=[N+]([O-])c1ccc2c(c1)/C(=N/N=C1c3ccccc3Cc3ccccc31)c1cc([N+](=O)[O-])cc([N+](=O)[O-])c1-2 | NO
Cc1csc(=S)n1OC(=O)NC1CCCCC1 | YES
Clc1ccc(NCNC2Nc3ccccc3N2)cc1Cl | NO
CCc1ccc2c(c1)N(CC(C)CN(C)C)c1ccccc1S2 (stereo not drawn) | NO
O=C1/C(=C/c2ccccc2)CCCC1CN1CCCCC1 (stereo not drawn) | NO
O=c1ccc(=O)n(-c2ccccc2)[nH]1 | NO
COc1ccc(N=CN(C)C)c(C)c1 | NO

Dear all, I need the recorded test outcome for O=C1OC(OC/C(Br)=C(\Br)COC2OC(=O)C(Cl)=C2Cl)C(Cl)=C1Cl (stereo not drawn) , thank you.
NO

Dear all, I need the recorded test outcome for COc1ccc(/C=C2\NC(=S)N(/C=C3\C(=O)Oc4ccccc4C3=O)C2=O)cc1 , thank you.
NO

Dear all, I need the recorded test outcome for NC(N)=NS(=O)(=O)c1ccc(Nc2c3ccccc3nc3c(C(=O)NCCO)cccc23)cc1 , thank you.
NO

Dear all, I need the recorded test outcome for Cc1cc(-c2cc(C)c(O)c(C(C)(C)C)c2)cc(C(C)(C)C)c1O , thank you.
NO

Dear all, I need the recorded test outcome for N#CC(C#N)=NNc1ccc(S(=O)(=O)O)cc1 , thank you.
NO

----------
- Experiment Notes: NCI Yeast Anticancer Drug Screen. Data for the sgs1 strain (AID 173);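 also: 0% = growth of vehicle-only control cultures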
- Setup Conditions: S. cerevisiae sgs1 mutant, at 33.0 µM, active compounds read high
The panel holds about 79,000 compounds, 15% with a hit somewhere; the sample as a whole holds those more often.
Experimental Endpoint: growth inhibition (%)
The response must be a number in % with no trailing unit.

NC1CCCCC1N.Nc1c(N=Nc2ccc(-c3ccc(N=Nc4cc(S(=O)(=O)[O-])c5ccccc5c4N)cc3)cc2)cc(S(=O)(=O)[O-])c2ccccc12.[OH3+].[OH3+].[Pt+4] | 93
CCc1cc(O)c(Cl)c(C)c1Cl | 44
O=C(Nc1ccc(Cl)cc1)Nc1nnc2nc(C(C(=O)c3cccc([N+](=O)[O-])c3Cl)c3nc4nnc(NC(=O)Nc5ccc(Cl)cc5)n4[nH]c3=O)c(=O)[nH]n12 | 1
COc1cc(O)c(O)c(C(C)(C)C)c1 | 8

Now, please, on to the next compound.
Given the compound O/N=C\c1c(O)ccc2ccccc12 , what is its reported growth inhibition?
41

----------
growth inhibition values for the molecules below.
- Experiment Notes: NCI Yeast Anticancer Drug Screen. Data for the sgs1 mgt1 strain (AID 161);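 also: 0% = growth of cultures given vehicle only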
- Setup Conditions: S. cerevisiae sgs1 mgt1 strain, at 5.0 µM (retest, dose inferred, filed as 0.5), active compounds read high
About 79,000 compounds went through this panel and 15% of them were active in at least one assay; those are over-represented in the sample as a whole.
The response must be a number in % with no trailing unit.

Worked examples, 5 molecules total:
Cc1cc2c3ccccc3c3ccccc3c2nn1 | -61
CCOC1=C/C(=N\Nc2ccc([N+](=O)[O-])cc2)CCC1 | 10
COc1ccc(C(=O)c2ccccc2C(=O)c2ccccc2OC)cc1 | 17
Oc1cccc2cc(Cl)cnc12 | -13
CCc1ccc2c(c1)N(CC(C)CN(C)C)c1ccccc1S2 (stereo not drawn) | -12

Now, please, on to the next molecule.
Given the molecule Oc1[nH]c2ccccc2c1N=NC(=S)N1CCCCC1 , what is its reported growth inhibition?
-8
